Catalogue of Max. Activity values
- target.under.test: T1, γδ T cell receptor on human γδ T cells (human)
- T1 construct: also called AG000003021 (γδ T cells)
- experiment: flow cytometry, dose-response binding at 37 C on human γδ T cells
readout.type: Max. Activity (fold over background)

[
  {
    "binder": "VG9B98 (antibody, human IgG1, kappa, V domains shown, IgG1, kappa; also called antibody #21) VH: EVQLVQSGGDLVKSGGSLRLSCAASGFTFSSYSMYWVRQAPGKGLEWVSSIGSSSTYIFYADSVKGRFTISRDNAMTSLYLQMNRLGAEDSAVYYCARDGELGPFEYWGQGTLVTVSS VL: EIVLTQSPGTLSLSPGERATLSCRASQSVSTSYLAWFQQKPGQAPRLLIFGTSSRATGIPDRFSGSGSGTDFTLTISRLEPEDFAVYHCLQYGRSPLTFGGGTKVDIKR",
    "observed.value": 2880
  },
  {
    "binder": "VG9B58 (antibody, human IgG1, kappa, V domains shown, IgG1, kappa; also called antibody #28) VH: QVQLQESGPGLVKPSETLSLTCTVSGGSIKSSYWTWIRQPPGKGLEWIGYMFYLGSTNYNPSLKSRVTMSIDTSRNQFSLKLSSVTAADTAVYYCSRERPVLDAFDIWGQGTMVTVSS VL: DIQMTQSPSAMSASVGDRVTITCRASQDITNYLAWFQQKPGKVPKRLIYAASSLQGGVPSRFSGSGSGTEFTLTISSLQPEDFSTYYCLQHDTYPYTFGQGTKVDIKR",
    "observed.value": 2690
  },
  {
    "binder": "VG9B472 (antibody, human IgG1, kappa, V domains shown, IgG1, kappa; also called antibody #33) VH: QVQLVESGGGLVKPGGSLRLSCAASGFTFSHYDMNWVRQAPGKGLEWVSSISSSSSYIFYADSVKGRFTISRDNAKNSLLLQMNSLRAEDTAVYHCARDRGVGDTSDYYSFGLDVWGQGTTVTVSS VL: EIVLTQSPSSLSASVGDRVTITCRASQGIATYLAWYQQKPGKVPNLLIYAASTLQSGVPSRFSGSGSGTDFTLTISSLQPEDVATYYCQKYNSAPPWTFGQGTKVEIKR",
    "observed.value": 2620
  }
]
